target_or_test_system: TgFPPS
assay: TgFPPS enzyme inhibition
Format: biochemical, Toxoplasma gondii
assay_conditions: read-out: TgFPPS IC50; means ± SD, n = 3
property: IC50
Write the numeric value and append its unit.

Some molecules with recorded IC50:
>>> print(df.to_string())
                    structure_smiles_string  result
0  O=P(O)(O)C(CNCCOc1cccc(Oc2ccccc2)c1)P(=O)(O)O   40 nM
1  O=P(O)(O)C(CSCCOc1ccc(Oc2ccccc2)cc1)P(=O)(O)O  362 nM
2  O=P(O)(O)C(CSCCOc1cccc(Oc2ccccc2)c1)P(=O)(O)O   76 nM
3        O=P(O)(O)C(CNCCOc1ccccc1)P(=O)(O)O  180 nM

So for O=P(O)(O)C(CNCCOc1ccc(Oc2ccccc2)cc1)P(=O)(O)O , the logged IC50 turned out to be 94 nM

Data provenance: paper PMC5200956
